- Protocol description: yeast display, Sf9 membrane polyspecificity reagent, FACS + sequencing; frameworks hold sequencing errors
Property label: polyreactivity (PSR sort gate)

Here are 5 sequences together with their reported answers.
QVQLVESGGGLVQAGGSLRLSCAASGFIFQANAMGWYRQAPGKERELVAAIDDGDSTYADSVKGRFTISRDNAKNTVYLQMNSLKPEDTAVYYCATRRNRSYDYWGQGTQVTVSS; low polyreactivity
QVQLVESGGGLVQAGGSLRLSCAASGRTFYYYAMGWYRQAPGKERELVAAITGSGANTYYADSVKGRFTISRDNAKNTVYLQMKSLKPEDTAVYYCNKYRTLRNGWGSGYYYWGQGTQVTVSS; high polyreactivity
QVQLVESGGGLFQAGGSLRLSCAASGSTFVWYAMGWYRQAPGKEREFVAANTNSGGSTYYADSVKGRFTISRDTAKNTVYLQMNILKPEDTAVYYCAAQSYYFSYHYDYWGQGTQVTVSS; low polyreactivity
QVQLVESGGGLVQAGGSLRLSCAASGIIFSIYVMGWYRQAPGKERELVAAISSNGGSTYYADSVKGRFTISRDNAKNTVYLQMNSLKPEDTAVYYCAAVSRSHYYYWGQGTQVTVSS; high polyreactivity
QVQLVESGGGLVQAGGSLRLSCAASGFIFDYYAMGWYRQAPGKEREFVAAITWDGGSTYYADSVKGRFTISRDNAKNTVYLQMNSLKPEDTAVYYRAAETWGEYGYWGQGTQVTVSS; low polyreactivity

IN: Give me measured polyreactivity (PSR sort gate), please, for this sequence: `QVQLVESGGGLFQAGGSLRLSSAASGIIFGYYSLGWYRQAPGKERELVAAINQDGSSTYYADSVKGRFTISRDNAKNTVYLQMNSLNPEDTAVYYCNARGVPRQDDRMGYWGQGTQVTVSS`
OUT: low polyreactivity

IN: Give me measured polyreactivity (PSR sort gate), please, for this sequence: `QVQLVESGGGLVQAGGSLRLSCAASGITFYDYAMGWYRQAPGKERELVAAISGGGITYYADSVKGRFTISRDNAKNTVYLQMNSLKPEDTAVYYCAAERYSPSVGYDYWGQGTQVTVSS`
OUT: low polyreactivity

IN: Give me measured polyreactivity (PSR sort gate), please, for this sequence: `QVQLVESGGGLVQAGGSLRLSCAASGSILDRNAMGWYRQAPGKERELVAAISRSRGSTYYADSVKGRFTISRDNAKNTVYLQMNSLKPEDTAVYYCNAYYPFYTLIYGGPVRYYNFDYWGQGPQVTVSS`
OUT: high polyreactivity

IN: Give me measured polyreactivity (PSR sort gate), please, for this sequence: `QVQLVESGGGLVQAGGSLRLSCAASGSLFSGNAMGWYRQAPGKEREFVAAISRSGSSTYYADSVKGRFTISRDNAKNPVYLQMNSLKPEDTAVYYCASRFGDMGYWGQGTQVTVSS`
OUT: high polyreactivity

IN: Give me measured polyreactivity (PSR sort gate), please, for this sequence: `QFQLVESGGGLVQAGGSLRLSCAASGRTFRSNTMGWYRQAPGKEREFVAVITYSAGSTYYADSVKGRFTISRDNAKNTVYLQMNSLKPEDTAVYYCAARVSWWPYDWYGYWGQGTQVTVSS`
OUT: high polyreactivity

IN: Give me measured polyreactivity (PSR sort gate), please, for this sequence: `QVQLVESGGGLVQAGGSLRLSCAASGRTFIEYAMAWYRQAPGKERELVAAISRNDGGSTYYADSVKGRFTISRDNAKNTVYLQMNSLKPEDTAVYYCAARRYISAHVRYGSWGQGTQVTLSS`
OUT: high polyreactivity
